System: M. tuberculosis H37Rv growth inhibition with meropenem
Assay: dose response, H37Rv, with and without meropenem (AID 434987);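 further: growth over 7 days at 37 °C before Alamar Blue read on day 9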
Conditions: measured here: IC90 with meropenem
Field: IC90. Provide a value for each of the molecules that follow.

For orientation, consider the following solved cases.
CCCCC(=O)NC(=S)Nc1ccc(NC(=O)C(C)C)c(OC)c1
> 100 µM
C=CCN(C(=O)CN1CCOCC1)c1nc(C)c(-c2ccccc2)s1
> 100 µM
Cc1ccc2occ(/C=C/C(=O)c3ccccc3O)c(=O)c2c1
> 100 µM

Please report IC90 for every entry that follows.
1. Cc1cccnc1NC(=O)c1c(O)c2cccc3c2n(c1=O)CCC3
2. Cc1nn(-c2ccccc2)cc1/C=N/NC(N)=S
3. Cn1c(/C=C/c2ccc(Br)cc2)c([N+](=O)[O-])c(=O)n(C)c1=O
4. CC(=O)c1ccc(-n2c(C)ccc2-c2ccccc2)cc1

1. > 100 µM
2. > 100 µM
3. > 100 µM
4. > 100 µM

Quick one: IC90 for N#Cc1c(SCC(=O)O)nc(N2CCCCC2)c2c1CCCC2 ?
27 µM

====

Test system: M. tuberculosis H37Rv growth inhibition with meropenem
Assay: dose response, H37Rv, with and without meropenem (AID 434987);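 further: growth over 7 days at 37 °C before Alamar Blue read on day 9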
Conditions: measured here: IC90 with meropenem
RECORDED ENDPOINT: IC90

Please report IC90 for every entry that follows.
1. O=C(Nc1ccc(Cl)cc1Cl)C1=Cc2ccccc2OC1
2. CC1(c2ccc([N+](=O)[O-])cc2)NC(=O)N(CC(=O)c2ccc3c(c2)OCO3)C1=O (centres undefined)
3. Cc1cc(/C=N/NC(=O)CC#N)c(C)n1-c1ccc([N+](=O)[O-])cc1

1: > 100 µM; 2: > 100 µM; 3: > 100 µM

====

Tested on: M. tuberculosis H37Rv growth inhibition with meropenem
Assay: dose response, H37Rv, with and without meropenem (AID 434987);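 further: growth over 7 days at 37 °C before Alamar Blue read on day 9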
Details: M. tuberculosis H37Rv growth inhibition; measured here: IC50 without meropenem
RECORDED ENDPOINT: IC50

For orientation, consider the following solved cases.
C=C(C)C1Cc2c(C)nn(-c3cccc4ccccc34)c2C1 (stereo unspecified)
39.2 µM
COc1cccc(NC(=S)Nc2cc(C)cc(C)n2)c1
> 100 µM
COc1ccccc1NC(=O)Nc1nn(C)c2cccc(OC)c12
21.1 µM
Brc1ccc(CNc2ccc3ncccc3c2)cc1
> 100 µM
COc1ccc2cc(C3=CCCCC3)ncc2c1
> 100 µM
O=C(NC1c2ccccc2-c2ccccc21)c1ccco1
> 100 µM
COc1cc(C(=O)NC2CCCCC2)ccc1OCc1ccc(Cl)cc1Cl
> 100 µM
O=C(N/N=C/c1ccc([N+](=O)[O-])o1)c1ccccc1-n1cccc1
13.9 µM
NC(=S)N/N=C/c1ccc2ccccc2c1
> 100 µM
CCn1c(=O)c2cc(C(=O)N(C)c3ccccc3F)sc2c2ccccc21
> 100 µM

Please report IC50 for every entry that follows.
1. O=C(CSc1nnc(-c2cnccn2)n1Cc1ccco1)Nc1ccc(Br)cc1
2. Cc1ccc(/C=N/NC(=O)c2cccs2)s1
3. Cc1ccc2nc(-c3ccc(NC(=S)NC(=O)C(C)C)cc3)sc2c1

1: > 100 µM; 2: > 100 µM; 3: > 100 µM

Please report IC50 for every entry that follows.
1. O=C(Nc1ccc(F)cc1)c1sc2cc(C(F)(F)F)cnc2c1-c1cccs1
2. CCOC(=O)c1cc(-c2ccc(C)cc2)n(CCC(=O)N2CCN(c3ccccn3)CC2)c1C
3. Cc1ccc(C(=O)NCC2(c3ccccc3)CCCC2)cc1

["> 100 µM", "89.4 µM", "> 100 µM"]

====

Field: IC50. Provide a value for each of the compounds that follow.
Test system: M. tuberculosis H37Rv growth inhibition with meropenem
Test: dose response, H37Rv, with and without meropenem (AID 434987);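 further: growth over 7 days at 37 °C before Alamar Blue read on day 9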
Details: M. tuberculosis H37Rv growth inhibition; measured here: IC50 without meropenem

For orientation, consider the following solved cases.
COc1ccc(OC)c2nc(-c3ccc4c(c3)OCO4)ccc12
> 100 µM
CCOc1ccc2cc(S(=O)(=O)N3CCCCC3)ccc2c1
> 100 µM

Please report IC50 for every entry that follows.
1. O=C(CSc1nnc(COc2ccccc2)o1)N1CCN(c2ccccc2)CC1
2. c1ccc(-n2c3ccccc3c3ccccc32)cc1
3. CC(C)(C)Nc1nc(Nc2ccc([N+](=O)[O-])cc2)nc(NC(C)(C)C)n1
4. COc1ccc(NC(=O)CN2CCN(C3c4ccccc4-c4ccccc43)CC2)c(OC)c1

> 100 µM
> 100 µM
> 100 µM
> 100 µM

====

Test system: M. tuberculosis H37Rv growth inhibition with meropenem
Assay: dose response, H37Rv, with and without meropenem (AID 434987);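 further: growth over 7 days at 37 °C before Alamar Blue read on day 9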
Conditions: M. tuberculosis H37Rv growth inhibition; measured here: IC50 without meropenem
pIC50: −log10 of the molar value.
RECORDED ENDPOINT: pIC50

For orientation, consider the following solved cases.
CCOCC(=O)Nc1cc(C(F)(F)F)ccc1Oc1cccc(Br)c1
< 4.00
NC(=S)N/N=C/c1ccc(/C=N/NC(N)=S)cc1
< 4.00
CC(=O)c1ccc(OCCCC(=O)OCC(=O)N2CCN(c3ccccc3)CC2)cc1
< 4.00
COc1cc(CNc2ccc(NC(C)=O)cc2)ccc1OCc1ccccc1C
< 4.00
COc1ccc(-c2sc3cc(OC)c(OC)cc3c2C#CCCO)cc1
< 4.30

Here is the next item to consider.
Quick one: pIC50 for O=C(/C=C/c1ccc2c(c1)OCO2)Nc1nc2ccccc2s1 ?
< 4.00

====

Tested on: M. tuberculosis H37Rv growth inhibition with meropenem
Assay: dose response, H37Rv, with and without meropenem (AID 434987);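 further: growth over 7 days at 37 °C before Alamar Blue read on day 9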
Settings: M. tuberculosis H37Rv growth inhibition; measured here: IC50 without meropenem
Field: IC50. Provide a value for each of the compounds that follow.

For orientation, consider the following solved cases.
CC(C)(C)c1ccc(C(=O)Oc2ccc3c(c2)OCC3=O)cc1
> 100 µM
CC#CC[N+](C)(C)CCCCCCCCCCCC
72.8 µM
Cn1c(=O)c2[nH]c(CNCc3ccccc3Cl)nc2n(C)c1=O
> 100 µM
C=C(C)COc1ccc2c(C)c(C)c(=O)oc2c1OCC(=C)C
> 100 µM
c1ccc(-c2noc(-c3cccc4ccccc34)n2)cc1
> 100 µM
Cc1cc2ccccn2c1C(=O)c1ccc([N+](=O)[O-])o1
> 100 µM
C/C(=N\OCC(=O)Nc1nc2ccccc2s1)c1ccccc1
47.6 µM
CCCCOc1ccc(/C=N/Nc2cc(N3CCOCC3)nc(C)n2)cc1
> 100 µM
C/C(=N\NC(=S)NCc1ccccc1)c1cccc(Br)c1
> 100 µM
O=C(Nc1cccc2ccccc12)N1CCCN(c2c(Cl)cncc2Cl)CC1
> 100 µM

Please report IC50 for every entry that follows.
1. COc1cc(-c2nc(S(=O)(=O)c3ccc(C)cc3)c(N3CCOCC3)o2)cc(OC)c1OC
2. Cc1ccc(-c2nc3[nH]c(=O)cc(NC(=O)C(C)C)n3n2)cc1
3. CCOC(=O)/C=c1\s/c(=C\c2c(OC)ccc3ccccc23)c(=O)n1CC(=O)NCC1CCCO1 (stereo not drawn)

1. > 100 µM
2. > 100 µM
3. > 100 µM

Please report IC50 for every entry that follows.
1. Cc1ccc(Cn2c(C(C)Nc3nc(-c4ccc(Cl)cc4)cs3)nc3cc(C(=O)NCCCO)ccc32)cc1 (stereo not drawn)
2. NC(=O)[C@@H]1CC2(CC(c3cccc(NC(=O)COc4ccc(Cl)cc4)c3)=NO2)CN1C(=O)COc1ccc(Cl)cc1 (stereo partly drawn)

67.3 µM
> 100 µM

Please report IC50 for every entry that follows.
1. Cc1ccc(/C=C/C(=O)OCC(=O)NC(C)c2ccccc2)o1 (stereo not drawn)
2. COC(=O)c1c(NC(=O)C2c3ccccc3Oc3ccccc32)sc(C)c1C
3. O=C(Cc1cccc2ccccc12)N/N=C/c1ccc(O)c([N+](=O)[O-])c1
4. COCc1nnc(NC(=O)c2ccc(S(=O)(=O)N(C)c3ccccc3)cc2)o1
5. COc1cc(C(F)(F)F)nc2ccc(C#CCOC(=O)Nc3ccccc3)cc12
6. N#C/C(C(=O)NCc1ccco1)=C1/SC=C(c2ccccc2)N1c1ccccc1
7. CN(C)c1ccc(S(=O)(=O)NCC(=O)OCC(=O)Nc2cccc(Cl)c2)cc1[N+](=O)[O-]

1. > 100 µM
2. > 100 µM
3. 27.2 µM
4. 40.3 µM
5. > 100 µM
6. > 100 µM
7. > 100 µM

Please report IC50 for every entry that follows.
1. CC(C)NC(=S)NN=C1c2ccccc2-c2ccccc21
2. COc1ccc(C(=O)NC(=S)NC(C)(C)C)cc1Br
3. c1ccc2c(c1)Cn1nc(Cc3nc4c(s3)CCCC4)nc1-2

["58.2 µM", "> 100 µM", "79.1 µM"]

Please report IC50 for every entry that follows.
1. Cc1ccc(CNC(=O)c2ccccc2NC(=O)CSc2nnnn2C)cc1
2. COC(=O)c1sc(-c2ccc(C(C)(C)C)cc2)cc1NC(=O)CCC(=O)O
3. Cc1cc(C)c(C)c(S(=O)(=O)N2C(=S)NC(=O)C2C(C)C)c1C (stereo not drawn)
4. O=c1[nH]c(=S)[nH]c(O)c1N=Nc1ccc2c(c1)OCCO2

1: 81.1 µM; 2: 23.8 µM; 3: 38.5 µM; 4: > 100 µM

Please report IC50 for every entry that follows.
1. O=c1c(O)c(-c2ccc3c(c2)OCO3)oc2ccccc12
2. Cc1cc(=O)[nH]c(N/N=C/c2c(F)c(F)c(F)c(F)c2F)n1
3. O=C(CCS(=O)(=O)c1ccccc1)N(CCCN1CCOCC1)c1nc2c(F)cccc2s1
4. O=C(N/N=C/C(Br)=C\c1ccccc1)c1ccc2nc[nH]c2c1
5. COc1ccc(CCNCc2csc3nc4ccccc4n23)cc1OC
6. C[C@]12CC[C@@H]3c4ccc(OS(=O)(=O)O)cc4CC[C@H]3[C@@H]1CCC2=O
7. COc1ccc(NC(=O)CCC2CCCC2)cc1OC

["> 100 µM", "92.1 µM", "> 100 µM", "> 100 µM", "93.7 µM", "> 100 µM", "> 100 µM"]

Please report IC50 for every entry that follows.
1. N#Cc1ccc(NCC(=O)Nc2ccc(S(=O)(=O)N3CCCCC3)cc2)cc1
2. O=C(COC(=O)C1CC1)NCc1ccccc1Cl

1: > 100 µM; 2: > 100 µM
